Source of measurements: patent US20210206841A1

- Target desc: T1, native IHFNTHI (integration host factor of nontypeable Haemophilus influenzae) (nontypeable Haemophilus influenzae …, UniProt P43723 1-96; P43724 1-94)
- T1 construct: also called NTHI IHF
- T1 sequence 1: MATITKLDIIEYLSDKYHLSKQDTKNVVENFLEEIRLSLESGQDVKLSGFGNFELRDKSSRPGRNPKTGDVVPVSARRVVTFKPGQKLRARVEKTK
- T1 sequence 2: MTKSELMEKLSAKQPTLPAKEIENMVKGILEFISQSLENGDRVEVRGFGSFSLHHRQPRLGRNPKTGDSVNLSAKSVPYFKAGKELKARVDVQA
- Protocol: SPR Biacore 3000, HuMab immobilized, IHFNTHI as analyte
Value type: koff

Binder: humanized anti-tail monoclonal antibody, heavy chain SEQ ID NO: 6 and light chain SEQ ID NO: 11 (antibody, V domains shown, also called H10215 (11E7.C7 Humanized HC3) + L10214 (11E7.C7 Humanized LC2)) VH: EVQLVESGGGLVQPGRSLRLSCTASGFTFSRYGMSWVRQAPGKGLEWVATISSGGSYTYYTDSVKGRFTISRDNAKNILYLQMNSLKTEDTAVYYCERHGGDGYWYFDVWGQGTMVTVSS VL: DIQMTQSPSSLSASVGDRVTITCRASQDISNYLNWYQQKPGKAVKLLIYYTSRLHSGVPSRFSGSGSGTDYTLTISSLQPEDFATYYCQQGNPLRTFGGGTKVEIKR
Test result: 0.00068 s⁻¹
//
Binder: humanized anti-tail monoclonal antibody, heavy chain SEQ ID NO: 5 and light chain SEQ ID NO: 10 (antibody, V domains shown, also called H10214 (11E7.C7 Humanized HC2) + L10213 (11E7.C7 Humanized LC1)) VH: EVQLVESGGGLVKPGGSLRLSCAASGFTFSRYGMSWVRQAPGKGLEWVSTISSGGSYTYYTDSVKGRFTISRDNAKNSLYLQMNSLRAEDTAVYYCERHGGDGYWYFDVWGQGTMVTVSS VL: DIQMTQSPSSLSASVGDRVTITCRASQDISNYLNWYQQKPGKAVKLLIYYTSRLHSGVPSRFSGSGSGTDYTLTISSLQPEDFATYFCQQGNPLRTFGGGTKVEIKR
Test result: 0.00057 s⁻¹
//
Binder: humanized anti-tail monoclonal antibody, heavy chain SEQ ID NO: 5 and light chain SEQ ID NO: 11 (antibody, V domains shown, also called H10214 (11E7.C7 Humanized HC2) + L10214 (11E7.C7 Humanized LC2)) VH: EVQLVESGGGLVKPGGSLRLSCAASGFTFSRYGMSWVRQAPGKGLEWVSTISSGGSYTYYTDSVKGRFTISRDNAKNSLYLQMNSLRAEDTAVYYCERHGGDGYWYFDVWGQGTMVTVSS VL: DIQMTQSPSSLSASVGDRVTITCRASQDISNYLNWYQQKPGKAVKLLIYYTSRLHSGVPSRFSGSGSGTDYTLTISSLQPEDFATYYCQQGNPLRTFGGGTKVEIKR
Test result: 0.00061 s⁻¹
//
Binder: humanized anti-tail monoclonal antibody, heavy chain SEQ ID NO: 6 and light chain SEQ ID NO: 12 (antibody, V domains shown, also called H10215 (11E7.C7 Humanized HC3) + L10215 (11E7.C7 Humanized LC3)) VH: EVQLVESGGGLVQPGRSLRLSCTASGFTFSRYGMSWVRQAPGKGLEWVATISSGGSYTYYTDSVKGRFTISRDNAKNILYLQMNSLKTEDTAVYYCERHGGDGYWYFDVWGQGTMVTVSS VL: DIVMTQSPATLSLSPGERATLSCRASQDISNYLNWYQQKPGQAVRLLIYYTSRLHSGIPARFSGSGSGTDYTLTISSLEPEDFAVYFCQQGNPLRTFGGGTKVEIKR
Test result: 0.0011 s⁻¹
//
Binder: humanized anti-tail monoclonal antibody, heavy chain SEQ ID NO: 4 and light chain SEQ ID NO: 11 (antibody, V domains shown, also called H10213 (11E7.C7 Humanized HC1) + L10214 (11E7.C7 Humanized LC2)) VH: EVQLVESGGGLVKPGGSLRLSCAASGFTFSRYGMSWVRQAPGKGLEWVATISSGGSYTYYTDSVKGRFTISRDNAKNSLYLQMNSLRAEDTAVYYCERHGGDGYWYFDVWGQGTMVTVSS VL: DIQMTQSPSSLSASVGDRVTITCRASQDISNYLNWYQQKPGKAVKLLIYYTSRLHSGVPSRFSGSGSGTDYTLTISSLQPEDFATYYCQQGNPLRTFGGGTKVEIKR
Test result: 0.00053 s⁻¹
//
Binder: humanized anti-tail monoclonal antibody, heavy chain SEQ ID NO: 4 and light chain SEQ ID NO: 10 (antibody, V domains shown, also called HuTailMab; TP-21958) VH: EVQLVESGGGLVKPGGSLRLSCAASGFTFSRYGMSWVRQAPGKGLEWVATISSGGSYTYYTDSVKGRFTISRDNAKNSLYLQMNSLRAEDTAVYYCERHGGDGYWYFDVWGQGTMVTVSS VL: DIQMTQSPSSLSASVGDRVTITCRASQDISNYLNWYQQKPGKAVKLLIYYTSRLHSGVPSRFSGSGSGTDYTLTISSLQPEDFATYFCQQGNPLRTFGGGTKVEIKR
Test result: 0.00043 s⁻¹
//
Binder: humanized anti-tail monoclonal antibody, heavy chain SEQ ID NO: 5 and light chain SEQ ID NO: 12 (antibody, V domains shown, also called H10214 (11E7.C7 Humanized HC2) + L10215 (11E7.C7 Humanized LC3)) VH: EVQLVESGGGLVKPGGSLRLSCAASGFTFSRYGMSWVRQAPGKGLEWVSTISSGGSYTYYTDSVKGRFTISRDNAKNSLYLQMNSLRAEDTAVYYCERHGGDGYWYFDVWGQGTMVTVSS VL: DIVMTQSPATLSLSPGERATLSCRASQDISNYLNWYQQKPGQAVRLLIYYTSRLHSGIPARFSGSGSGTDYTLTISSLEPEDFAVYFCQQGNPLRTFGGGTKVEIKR
Test result: 0.0012 s⁻¹
//
Binder: humanized anti-tail monoclonal antibody, heavy chain SEQ ID NO: 6 and light chain SEQ ID NO: 10 (antibody, V domains shown, also called H10215 (11E7.C7 Humanized HC3) + L10213 (11E7.C7 Humanized LC1)) VH: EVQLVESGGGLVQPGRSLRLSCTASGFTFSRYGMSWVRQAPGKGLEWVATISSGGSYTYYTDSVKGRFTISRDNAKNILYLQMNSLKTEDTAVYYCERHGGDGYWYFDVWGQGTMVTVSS VL: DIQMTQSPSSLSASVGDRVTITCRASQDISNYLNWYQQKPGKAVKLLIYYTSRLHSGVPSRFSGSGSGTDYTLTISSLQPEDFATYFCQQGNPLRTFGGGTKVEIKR
Test result: 0.00073 s⁻¹
